Reference source for all entries: paper PMC7250496

molecular target: human melanocortin 4 receptor (human, UniProt P32245 1-332); experiment: radioligand binding
Sequence (P32245 whole entry): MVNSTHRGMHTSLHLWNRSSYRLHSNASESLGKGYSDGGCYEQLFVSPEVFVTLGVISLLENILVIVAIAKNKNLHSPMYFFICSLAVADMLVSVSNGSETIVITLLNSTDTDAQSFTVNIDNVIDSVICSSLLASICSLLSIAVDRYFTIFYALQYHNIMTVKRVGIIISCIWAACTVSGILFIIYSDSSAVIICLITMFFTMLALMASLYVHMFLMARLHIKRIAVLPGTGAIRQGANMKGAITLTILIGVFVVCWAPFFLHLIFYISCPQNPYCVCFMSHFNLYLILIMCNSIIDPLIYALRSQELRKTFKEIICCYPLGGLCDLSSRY
Square brackets hold non-standard residues; d marks the D form. Dap = NC[C@H](N)C(=O)O
MEASURED_ATTRIBUTE: pIC50
One number for each entry, as −log10 of the molar value.

Recorded pIC50, per entry:
cyclo(PCFFNAF[dP]) [c[Pro-Cys-Phe-Phe-Asn-Ala-Phe-DPro]]	4.71
cyclo(PRFF[Dap]VF[dP]) [c[Pro-Arg-Phe-Phe-Dap-Val-Phe-DPro]]	7.49
cyclo(PCFF[Dap]AF[dP]) [c[Pro-Cys-Phe-Phe-Dap-Ala-Phe-DPro]]	4.80

--- query ---
Exercise: Please give the measured pIC50 for this binder: cyclo(PHFF[Dap]AF[dP]) [c[Pro-His-Phe-Phe-Dap-Ala-Phe-DPro]]
Key: 5.57
